Every entry's value here was drawn from patent US20220289753A1.

I'd appreciate it if you could supply IC50 values for the items below.
Molecular target: SHP-2 enzyme (Met1-Leu525) (Homo sapiens)
Construct: synthetized by Origene, Met1-Leu525, cat #TP750155
Sequence (Q06124 1-525): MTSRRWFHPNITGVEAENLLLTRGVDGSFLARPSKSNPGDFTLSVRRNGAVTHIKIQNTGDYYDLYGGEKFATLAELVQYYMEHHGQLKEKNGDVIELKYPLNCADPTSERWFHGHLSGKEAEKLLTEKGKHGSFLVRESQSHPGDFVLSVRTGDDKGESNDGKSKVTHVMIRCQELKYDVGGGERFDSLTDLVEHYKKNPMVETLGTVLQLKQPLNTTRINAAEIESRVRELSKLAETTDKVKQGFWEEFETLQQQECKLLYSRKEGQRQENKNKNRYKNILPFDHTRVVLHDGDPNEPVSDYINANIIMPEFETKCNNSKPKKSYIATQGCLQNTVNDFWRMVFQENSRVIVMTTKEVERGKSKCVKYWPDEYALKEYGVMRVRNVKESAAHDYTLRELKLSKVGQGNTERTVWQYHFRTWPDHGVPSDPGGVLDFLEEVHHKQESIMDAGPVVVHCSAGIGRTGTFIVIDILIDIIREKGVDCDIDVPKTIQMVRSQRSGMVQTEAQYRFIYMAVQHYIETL
Assay: SHP2 inhibition enzymatic assay (DiFMUP substrate, IRS1 peptide activation)
Settings: SHP2 wt; activated by 500 nM IRS1 peptide; 75 μM DiFMUP substrate
Description: SHP2 Inhibition Enzymatic Assay Assay volume of 20 μL/well was assembled in 384 well black polystyrene low-binding microplates (Greiner), using the following buffer: 60 mM HEPES pH 7.2, 75 mM NaCl, 75 mM KCl, 1 mM EDTA pH 8, 0.05% tween-20, 5 mM DTT. […] Briefly, DMSO serially diluted testing compounds were transferred to the bottom of the assay plate. […] The fluorescence was detected by a microplate reader (Envision, PerkinElmer) according to the DiFMUP excitation and emission wavelength. […]

Q: Name the reported IC50 value associated with the compound `N#CC1CN(c2nccc(Sc3cnc4[nH]c(N5CCC6(CC5)Cc5ccccc5[C@H]6N)nc4n3)c2Cl)C1`
Ans: < 0.5 µM

Q: Name the reported IC50 value associated with the compound `COc1ccc(Sc2cnc3[nH]c(N4CCC(C)(N)CC4)nc3n2)cc1`
Ans: 0.5 to 3 µM

Q: Name the reported IC50 value associated with the compound `Cc1c(Sc2cnc3nc(N4CCC5(CC4)Cc4ccccc4[C@H]5N)[nH]c3n2)ccnc1N`
Ans: < 0.5 µM

Q: Name the reported IC50 value associated with the compound `Nc1nccc(Sc2cnc3[nH]c(N4CCC5(CC4)Cc4ccccc4[C@H]5N)nc3n2)c1F`
Ans: < 0.5 µM

Q: Name the reported IC50 value associated with the compound `Nc1nccc(Sc2cnc3[nH]c(N4CCC5(CC4)Cc4ccc(CO)cc4[C@H]5N)nc3n2)c1Cl`
Ans: < 0.5 µM

Q: Name the reported IC50 value associated with the compound `CC1(N)CCN(c2nc3nc(Sc4cccc(C5CC5)c4)cnc3[nH]2)CC1`
Ans: 0.5 to 3 µM

Q: Name the reported IC50 value associated with the compound `N[C@@H]1c2ccccc2CC12CCN(c1nc3nc(Sc4cccc5nonc45)cnc3[nH]1)CC2`
Ans: < 0.5 µM

Q: Name the reported IC50 value associated with the compound `N[C@@H]1c2ccccc2CC12CCN(c1nc3ncc(Sc4cccc5[nH]ccc45)nc3[nH]1)CC2`
Ans: < 0.5 µM

Q: Name the reported IC50 value associated with the compound `CC(C)(CNc1nc2nc(Sc3cccnc3C(F)(F)F)cnc2[nH]1)N1CCOCC1`
Ans: > 3 µM

Q: Name the reported IC50 value associated with the compound `N[C@@H]1c2ccccc2CC12CCN(c1nc3ncc(Sc4cccc5nccnc45)nc3[nH]1)CC2`
Ans: < 0.5 µM

Q: Name the reported IC50 value associated with the compound `N[C@@H]1c2ccccc2CC12CCN(c1nc3nc(Sc4cccc5c4OCC(=O)N5)cnc3[nH]1)CC2`
Ans: < 0.5 µM

Q: Name the reported IC50 value associated with the compound `CC1(N)CCN(c2nc3ncc(Sc4ccc(C5(C#N)CCC5)cc4)nc3[nH]2)CC1`
Ans: > 3 µM

Q: Name the reported IC50 value associated with the compound `Cc1nc2nc(N3CCC(C)(N)CC3)[nH]c2nc1Sc1cccc(Cl)c1Cl`
Ans: < 0.5 µM

Q: Name the reported IC50 value associated with the compound `Nc1nccc(Sc2cnc3[nH]c(N4CCC5(CC4)Cc4ccc(C6CC6)cc4[C@H]5N)nc3n2)c1Cl`
Ans: < 0.5 µM

Q: Name the reported IC50 value associated with the compound `CCOc1cnccc1Sc1cnc2[nH]c(N3CCC4(CC3)Cc3ccccc3[C@H]4N)nc2n1`
Ans: < 0.5 µM

Q: Name the reported IC50 value associated with the compound `N[C@@H]1c2ccccc2CC12CCN(c1nc3nc(Sc4cccnc4C(F)(F)F)cnc3[nH]1)CC2`
Ans: < 0.5 µM

###

target: SHP-2 enzyme (Met1-Leu525) (Homo sapiens); construct: synthetized by Origene, Met1-Leu525, cat #TP750155; assay: SHP2 inhibition enzymatic assay (DiFMUP substrate, IRS1 peptide activation); details: SHP2 wt; activated by 500 nM IRS1 peptide; 75 μM DiFMUP substrate
I'd appreciate it if you could supply IC50 values for the items below.

Q: // lookup IC50 | system=SHP-2 enzyme (Met1-Leu525) (Homo sapiens) | key= `COc1cccc(Sc2cnc3[nH]c(N4CCC(C)(N)CC4)nc3n2)c1`
Ans: 500 to 3000 nM

Q: // lookup IC50 | system=SHP-2 enzyme (Met1-Leu525) (Homo sapiens) | key= `Nc1nccc(Sc2cnc3[nH]c(N4CCC5(CC4)Cc4ccc(CF)cc4[C@H]5N)nc3n2)c1Cl`
Ans: < 500 nM

Q: // lookup IC50 | system=SHP-2 enzyme (Met1-Leu525) (Homo sapiens) | key= `CC1(N)CCN(c2nc3nc(Sc4ccc(C(=O)O)cc4)cnc3[nH]2)CC1`
Ans: < 500 nM

Q: // lookup IC50 | system=SHP-2 enzyme (Met1-Leu525) (Homo sapiens) | key= `CC(=O)N1CC(F)(F)c2c(Sc3cnc4[nH]c(N5CCC6(CC5)Cc5ccccc5[C@H]6N)nc4n3)cccc21`
Ans: < 500 nM

Q: // lookup IC50 | system=SHP-2 enzyme (Met1-Leu525) (Homo sapiens) | key= `Nc1nccc(Sc2cnc3[nH]c(N4CCC5(CC4)Cc4ccc(N6CCOCC6)cc4[C@H]5N)nc3n2)c1Cl`
Ans: < 500 nM

Q: // lookup IC50 | system=SHP-2 enzyme (Met1-Leu525) (Homo sapiens) | key= `Nc1nccc(Sc2cnc3[nH]c(N4CCC5(CC4)Cc4c(F)cccc4[C@H]5N)nc3n2)c1Cl`
Ans: < 500 nM

Q: // lookup IC50 | system=SHP-2 enzyme (Met1-Leu525) (Homo sapiens) | key= `N[C@H]1c2ccncc2CC12CCN(c1nc3nc(Sc4ccnc(NC5CC5)c4Cl)cnc3[nH]1)CC2`
Ans: < 500 nM

Q: // lookup IC50 | system=SHP-2 enzyme (Met1-Leu525) (Homo sapiens) | key= `CNc1nccc(-c2cnc3[nH]c(N4CCC5(CC4)Cc4ccccc4[C@H]5N)nc3n2)c1Cl`
Ans: 500 to 3000 nM

###

I'd appreciate it if you could supply IC50 values for the items below.
tested on: ERK phosphorylation in KYSE-520 cells; assay: Phospho-ERK cellular assay (Advanced phospho-ERK1/2 (Thr202/Tyr204) TR-FRET kit); format: cell-based; conditions: Homo sapiens, KYSE-520, 2 h, KYSE-520 cells, 2 h at 37° C., TR-FRET; read-out: pERK IC50

Q: Name the reported IC50 value associated with the compound `CC1(N)CCN(c2nc3nc(Sc4cccc5cccnc45)cnc3[nH]2)CC1`
Ans: > 5000 nM

Q: Name the reported IC50 value associated with the compound `N[C@@H]1c2ccccc2CC12CCN(c1nc3ncc(Sc4ccnc5nccnc45)nc3[nH]1)CC2`
Ans: < 1000 nM

Q: Name the reported IC50 value associated with the compound `N[C@@H]1c2ccccc2CC12CCN(c1nc3nc(Sc4ccc5cc[nH]c5c4)cnc3[nH]1)CC2`
Ans: 1000 to 5000 nM

Q: Name the reported IC50 value associated with the compound `CNc1nccc(Sc2cnc3[nH]c(N4CCC5(CC4)Cc4ccccc4[C@H]5N[S@+]([O-])C(C)(C)C)nc3n2)c1Cl`
Ans: 1000 to 5000 nM

Q: Name the reported IC50 value associated with the compound `N[C@@H]1c2ccccc2CC12CCN(c1nc3nc(Sc4ccc[n+]([O-])c4C(F)(F)F)cnc3[nH]1)CC2`
Ans: < 1000 nM

Q: Name the reported IC50 value associated with the compound `N[C@@H]1c2cc(F)ccc2CC12CCN(c1nc3ncc(Sc4ccncc4Cl)nc3[nH]1)CC2`
Ans: < 1000 nM

Q: Name the reported IC50 value associated with the compound `CN1C(=O)COc2c(Sc3cnc4nc(N5CCC6(CC5)Cc5ccccc5[C@H]6N)[nH]c4n3)cccc21`
Ans: 1000 to 5000 nM

Q: Name the reported IC50 value associated with the compound `N[C@@H]1c2ccccc2OC12CCN(c1nc3nc(Sc4ccnc(NC5CC5)c4Cl)cnc3[nH]1)CC2`
Ans: < 1000 nM

Q: Name the reported IC50 value associated with the compound `Nc1nccc(Sc2cnc3[nH]c(N4CCC5(CC4)Cc4c(F)cccc4[C@H]5N)nc3n2)c1Cl`
Ans: < 1000 nM

Q: Name the reported IC50 value associated with the compound `CN1C(=O)C(F)(F)c2c(Sc3cnc4[nH]c(N5CCC6(CC5)Cc5ccccc5[C@H]6N)nc4n3)cccc21`
Ans: < 1000 nM

Q: Name the reported IC50 value associated with the compound `N[C@@H]1c2ccccc2CC12CCN(c1cc3nc(Sc4cccc(Cl)c4Cl)cnc3[nH]1)CC2`
Ans: < 1000 nM

Q: Name the reported IC50 value associated with the compound `Nc1nccc(Sc2cnc3[nH]c(N4CCC5(CC4)Cc4ncc(F)cc4[C@H]5N)nc3n2)c1Cl`
Ans: 1000 to 5000 nM

Q: Name the reported IC50 value associated with the compound `Cn1cc2c(Sc3cnc4[nH]c(N5CCC6(CC5)Cc5ccccc5[C@H]6N)nc4n3)ccnc2n1`
Ans: < 1000 nM

Q: Name the reported IC50 value associated with the compound `N[C@H]1c2ccncc2CC12CCN(c1nc3nc(Sc4ccnc(NC5CC5)c4Cl)cnc3[nH]1)CC2`
Ans: 1000 to 5000 nM

Q: Name the reported IC50 value associated with the compound `CNc1nccc(Sc2cnc3[nH]c(N4CCC5(CC4)Cc4ccccc4[C@H]5N)nc3n2)c1C#N`
Ans: < 1000 nM

Q: Name the reported IC50 value associated with the compound `CC1(N)CCN(c2nc3ncc(Sc4cccnc4C(F)(F)F)nc3[nH]2)CC1`
Ans: 1000 to 5000 nM

Q: Name the reported IC50 value associated with the compound `N[C@@H]1c2cccnc2CC12CCN(c1nc3ncc(Sc4ccnc(Cl)c4Cl)nc3[nH]1)CC2`
Ans: < 1000 nM

Q: Name the reported IC50 value associated with the compound `CC1(N)CCN(c2nc3nc(Sc4ccnc5cccnc45)cnc3[nH]2)CC1`
Ans: 1000 to 5000 nM

Q: Name the reported IC50 value associated with the compound `N[C@@H]1c2ccccc2CC12CCN(c1nc3nc(Sc4cccc5c4C(F)(F)C(=O)N5)cnc3[nH]1)CC2`
Ans: < 1000 nM

Q: Name the reported IC50 value associated with the compound `Nc1nccc(Sc2cnc3[nH]c(N4CCC5(CC4)Cc4ccc(CO)cc4[C@H]5N)nc3n2)c1Cl`
Ans: < 1000 nM

Q: Name the reported IC50 value associated with the compound `N[C@@H]1c2ccccc2CC12CCN(c1nc3nc(Sc4cccnc4N4CCCC4)cnc3[nH]1)CC2`
Ans: > 5000 nM

Q: Name the reported IC50 value associated with the compound `N[C@@H]1c2ccccc2CC12CCN(c1nc3nc(Sc4cnc5ccccn5c4=O)cnc3[nH]1)CC2`
Ans: 1000 to 5000 nM

Q: Name the reported IC50 value associated with the compound `N[C@@H]1c2cccnc2CC12CCN(c1nc3ncc(Sc4cccc5c4CCC(=O)N5)nc3[nH]1)CC2`
Ans: 1000 to 5000 nM

Q: Name the reported IC50 value associated with the compound `Nc1nccc(Sc2cnc3[nH]c(N4CCC5(CC4)Cc4ccccc4[C@H]5N)nc3n2)c1Cl`
Ans: < 1000 nM

Q: Name the reported IC50 value associated with the compound `CC1(N)CCN(c2nc3nc(Sc4ccccc4Br)cnc3[nH]2)CC1`
Ans: 1000 to 5000 nM

Q: Name the reported IC50 value associated with the compound `N[C@@H]1c2ccccc2CC12CCN(c1nc3nc(Sc4cc(O)ncc4Cl)cnc3[nH]1)CC2`
Ans: 1000 to 5000 nM

Q: Name the reported IC50 value associated with the compound `N[C@@H]1c2ccccc2CC12CCN(c1nc3nc(Sc4ccnc5[nH]ccc45)cnc3[nH]1)CC2`
Ans: < 1000 nM

Q: Name the reported IC50 value associated with the compound `CNC(=O)c1ncccc1Sc1cnc2[nH]c(N3CCC4(CC3)Cc3ccccc3[C@H]4N)nc2n1`
Ans: > 5000 nM

Q: Name the reported IC50 value associated with the compound `N[C@@H]1c2cc(F)c(F)cc2CC12CCN(c1nc3nc(Sc4ccnc(NC5CC5)c4Cl)cnc3[nH]1)CC2`
Ans: < 1000 nM

Q: Name the reported IC50 value associated with the compound `Nc1nccc(Sc2cnc3nc(N4CCC5(CC4)Cc4ccc(F)cc4[C@H]5N)[nH]c3n2)c1Cl`
Ans: < 1000 nM
